Reference for the values: ChEMBL document CHEMBL1121802

tested on: Mus musculus; test: Antidepressant activity by determining the reversal of tetrabenazine-induced ptosis upon oral administration; type: functional
REPORTED METRIC: ED50

// CN(C)CCCN=C(c1ccccc1)c1ccccc1 : ED50 value = > 125 mg/kg

// CN(C)CCN=C1c2ccccc2C2C(Cl)C2c2ccccc21 (configuration not stated) : ED50 value = > 125 mg/kg

// CN(C)CCN=C1c2ccccc2C2C(c3ccccc31)C2(Cl)Cl (configuration not stated) : ED50 value = > 125 mg/kg

// CN(C)CCCN=c1c2ccccc2oc2ccccc12 : ED50 value = > 125 mg/kg

// CN(C)CCC=C1c2ccccc2COc2ccccc21 [DOXEPIN] : ED50 value = 5.9 mg/kg

// CN(C)CCC/N=C1\c2ccccc2CSc2ccccc21 : ED50 value = > 81 mg/kg

// CN(C)CCNC1c2ccccc2CCc2ccccc21 : ED50 value = > 125 mg/kg

// c1ccc2c(c1)CCc1ccccc1C2=NCCN1CCOCC1 : ED50 value = > 125 mg/kg

// CN(C)CC/N=C1\c2ccccc2CCc2ccc(Cl)cc21 (mixture of isomers) : ED50 value = 4.9 mg/kg

// CN(C)CCCN1c2ccccc2CCc2ccccc21 : ED50 value = 0.9 mg/kg

// CNCCN=C1c2ccccc2CCc2ccccc21 : ED50 value = < 5 mg/kg

// NCCCNC1c2ccccc2CCc2ccccc21 : ED50 value = > 125 mg/kg

---

Provide the reported ED50 of each item.
system: Mus musculus; experiment: The effect on electroshock protection in mice following oral administration; assay type: functional

// CN(C)CC/N=C1\c2ccccc2CN(C)c2ccccc21 : ED50 value = 200 mg/kg

// c1ccc2c(c1)C(=NCCN1CCCC1)c1ccccc1C1CC21 (stereo not drawn) : ED50 value = 200 mg/kg

// CN(C)CCNC1c2ccccc2CCc2ccccc21 : ED50 value = 60 mg/kg

// CN(C)CC/N=C1\c2ccccc2CS(=O)(=O)c2ccccc21 : ED50 value = > 324 mg/kg

// CN(C)CCN=c1c2ccccc2ccc2ccccc12 : ED50 value = > 324 mg/kg

// c1ccc2c(c1)C(=NCCN1CCOCC1)c1ccccc1C1CC21 (stereo not drawn) : ED50 value = > 324 mg/kg

// CNCCN=C1c2ccccc2CCc2ccccc21 : ED50 value = > 324 mg/kg

// CN(C)CCC/N=C1\c2ccccc2CSc2ccccc21 : ED50 value = > 324 mg/kg

// CN(C)CC/N=C1\c2ccccc2CNc2ccccc21 : ED50 value = > 324 mg/kg

// CN(C)CCN=C1c2ccccc2C2C(c3ccccc31)C2(F)F (stereo not drawn) : ED50 value = 200 mg/kg

// CN(C)CCCN=C1c2ccccc2C2CC2c2ccccc21 (stereo not drawn) : ED50 value = > 324 mg/kg

// NCCCNC1c2ccccc2CCc2ccccc21 : ED50 value = > 324 mg/kg

// CN(C)CCCN=c1c2ccccc2sc2ccccc12 : ED50 value = > 324 mg/kg
